Data origin, for the record: paper PMC8786932

Assign EC50 to each entry below.
Target: T. gondii tachyzoites (type II ME49-FLuc)
Test: Luciferase-based tachyzoite growth assay
Format: cell-based, Toxoplasma gondii
Details: Fig 2A Tg_Pf_Cp EC50s; read-out: EC50 T. gondii
Numbers only; they are read as nM.

// query EC50 value for entry COc1ccc(NC(=O)N2CCCCN3[C@H](CO)[C@H](c4ccc(C#Cc5ccccc5)cc4)[C@]3(CO)C2)cc1 [BRD2936]
1690

// query EC50 value for entry COc1ccc(NC(=O)N2CCCCN3[C@H](CN4CCN(C)CC4)[C@H](c4ccc(C#Cc5ccccc5)cc4)[C@@H]3C2)cc1 [BRD6479]
425

// query EC50 value for entry COc1ccc(NC(=O)N2CCCCN3[C@H](CO)[C@H](c4ccc(C#Cc5ccccc5C#N)cc4)[C@@H]3C2)cc1 [BRD4873]
213

// query EC50 value for entry COc1ccc(NC(=O)N2CCCN3[C@H](CO)[C@H](c4ccc(C#Cc5ccccc5)cc4)[C@@H]3C2)cc1 [BRD9599]
1750

// query EC50 value for entry COc1ccc(NC(=O)N2CCCCN3[C@H](CN4CCC4)[C@H](c4ccc(C#Cc5ccccc5)cc4)[C@@H]3C2)cc1 [BRD8493]
442

// query EC50 value for entry OC[C@@H]1[C@H](c2ccc(C#Cc3ccccc3)cc2)[C@@H]2CN(c3nc4ccccc4s3)CCCCN12 [BRD5349]
3940

// query EC50 value for entry O=C(NC1CCC1)N1CCCCN2[C@H](CO)[C@H](c3ccc(C#Cc4ccccc4)cc3)[C@@H]2C1 [BRD8260]
2580

// query EC50 value for entry COc1ccc(NC(=O)N2CCCCN3[C@@H](CO)[C@H](c4ccc(C#Cc5ccccn5)cc4)[C@@H]3C2)cc1 [BRD9257]
646

// query EC50 value for entry COc1ccc(NC(=O)N2CCCCN3[C@H](CO)[C@H](c4ccc(C#CC5CC5)cc4)[C@@H]3C2)cc1 [BRD5774]
1610

====

Assay: in vivo
Design: species or system mouse
Settings: female, CD1, mouse, in vivo, po, 10 mg/kg/day, mouse, 10 mg/kg/day p.o., Day 4
Protocol: […]. All mice were fed prior to dosing. After dosing, 200 uL of blood was collected at predetermined time points (pre, 1, 3, 7, 24 h). Blood samples were processed for plasma by centrifugation at approximately 4 °C, 4,500 g for 15 min within min of collection. […] Plasma concentration versus time data was analyzed by non-compartmental approaches using the Phoenix WinNonlin 6.3 software program. […]
readout.name: half-life (h)
Numbers only; they are read as h.

// query half-life value for entry COc1ccc(NC(=O)N2CCCCN3[C@H](CN(C)C)[C@H](c4ccc(C#Cc5ccccc5)cc4)[C@@H]3C2)cc1
64.6

====

Tested on: T. gondii RHΔhxgprtΔku80 (RHΔΔ)
Experiment: Tachyzoite lytic assay, wild-type parent
Format: cell-based, Toxoplasma gondii
Conditions: Toxoplasma gondii, 72 h, read-out: EC50, RHΔΔ
readout.name: pEC50
pEC50 is defined as minus the log10 of a concentration measured in mol/L.

Write down the reported pEC50 of COc1ccc(NC(=O)N2CCCCN3[C@H](CN(C)C)[C@H](c4ccc(C#Cc5ccccc5)cc4)[C@@H]3C2)cc1 , test system: T. gondii RHΔhxgprtΔku80 (RHΔΔ).
7.09

====

Experiment: in vivo
Set-up: species or system mouse
Conditions: female, CD1, mouse, in vivo, po, 10 mg/kg/day, mouse, 10 mg/kg/day p.o., Day 4; read-out: AUC0–24
readout.name: AUC(0-t) (ng·h/mL)
Numbers only; they are read as ng·h/mL.

// query AUC(0-t) value for entry COc1ccc(NC(=O)N2CCCCN3[C@H](CN(C)C)[C@H](c4ccc(C#Cc5ccccc5)cc4)[C@@H]3C2)cc1
6360

====

Assay: in vivo
Set-up: species or system mouse
Conditions: female, CD1, mouse, in vivo, po, 10 mg/kg/day, mouse, 10 mg/kg/day p.o., Day 4
readout.name: MRT (h)
Numbers only; they are read as h.

// query MRT value for entry COc1ccc(NC(=O)N2CCCCN3[C@H](CN(C)C)[C@H](c4ccc(C#Cc5ccccc5)cc4)[C@@H]3C2)cc1
11.7

====

Test system: T. gondii tachyzoites (type II ME49-FLuc)
Test: Luciferase-based tachyzoite growth assay
Type: cell-based, Toxoplasma gondii
Parameters: unit: µM
Settings: Fig 1A rank order, T. gondii growth
Assign EC50 log inhib vs normalized response to each entry below.
Answer as a number with no unit attached.

// query EC50 log inhib vs normalized response value for entry COc1ccc(NC(=O)N2CCCCN3[C@@H](CO)[C@H](c4ccc(C#Cc5ccccc5)cc4)[C@@H]3C2)cc1
0.1187

// query EC50 log inhib vs normalized response value for entry COc1ccc(NC(=O)N2CCCCN3[C@H](CO)[C@@H](c4ccc(C#Cc5ccccc5)cc4)[C@@H]3C2)cc1
1.487

// query EC50 log inhib vs normalized response value for entry CCc1nc(N)nc(N)c1-c1ccc(Cl)cc1 [Pyrimethamine, reference compound]
0.2476

// query EC50 log inhib vs normalized response value for entry COc1ccc(NC(=O)N2CCCCN3[C@H](CN(C)S(C)(=O)=O)[C@H](c4ccc(C#Cc5ccccc5)cc4)[C@@H]3C2)cc1
0.03476

====

Biological target: recombinant HsPheRS (Homo sapiens, UniProt Q9Y285)
Sequence (Q9Y285 whole entry): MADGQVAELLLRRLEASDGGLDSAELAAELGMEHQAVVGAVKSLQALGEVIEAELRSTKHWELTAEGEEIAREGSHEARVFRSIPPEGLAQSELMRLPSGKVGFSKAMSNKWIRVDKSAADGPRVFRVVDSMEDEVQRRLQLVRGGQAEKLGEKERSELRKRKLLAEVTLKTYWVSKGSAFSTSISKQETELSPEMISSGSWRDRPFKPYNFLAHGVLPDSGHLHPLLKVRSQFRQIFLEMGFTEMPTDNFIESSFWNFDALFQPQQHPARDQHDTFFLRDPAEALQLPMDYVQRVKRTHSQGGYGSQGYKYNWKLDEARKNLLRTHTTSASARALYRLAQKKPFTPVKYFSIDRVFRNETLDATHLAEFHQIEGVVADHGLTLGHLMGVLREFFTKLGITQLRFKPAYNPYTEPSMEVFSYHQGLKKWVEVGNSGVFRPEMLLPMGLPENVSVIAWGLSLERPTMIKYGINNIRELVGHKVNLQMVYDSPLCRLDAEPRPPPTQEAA
Sequence (Q9NSD9 whole entry partner): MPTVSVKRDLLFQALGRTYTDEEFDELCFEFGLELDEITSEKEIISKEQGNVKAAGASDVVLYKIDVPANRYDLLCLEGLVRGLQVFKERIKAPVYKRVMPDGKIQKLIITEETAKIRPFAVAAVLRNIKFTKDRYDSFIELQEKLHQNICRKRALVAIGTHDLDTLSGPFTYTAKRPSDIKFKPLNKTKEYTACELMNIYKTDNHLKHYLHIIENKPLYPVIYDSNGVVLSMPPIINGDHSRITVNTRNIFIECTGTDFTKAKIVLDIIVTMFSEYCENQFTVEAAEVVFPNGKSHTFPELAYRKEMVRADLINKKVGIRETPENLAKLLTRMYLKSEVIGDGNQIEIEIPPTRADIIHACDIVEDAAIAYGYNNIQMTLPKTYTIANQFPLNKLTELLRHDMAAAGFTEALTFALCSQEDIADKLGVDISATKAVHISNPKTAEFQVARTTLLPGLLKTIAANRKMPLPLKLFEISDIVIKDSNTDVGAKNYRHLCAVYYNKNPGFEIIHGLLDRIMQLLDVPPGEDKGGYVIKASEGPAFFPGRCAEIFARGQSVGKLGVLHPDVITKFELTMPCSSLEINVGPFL
Assay: Malachite green aminoacylation enzyme assay, HsPheRS
readout.name: IC50 (µM)
Numbers only; they are read as µM.

Write down the reported IC50 of COc1ccc(NC(=O)N2CCCCN3[C@H](CN(C)C)[C@H](c4ccc(C#Cc5ccccc5)cc4)[C@@H]3C2)cc1 [BRD7929] , test system: recombinant HsPheRS (Homo sapiens, UniProt Q9Y285).
22.3

====

Test: in vitro
Format: cell-based, human
Details: human; PMA differentiated, top 20 μM; read-out: THP-1 EC50
readout.name: pEC50
pEC50 is defined as minus the log10 of a concentration measured in mol/L.

// query pEC50 value for entry CN(C[C@@H]1[C@H](c2ccc(C#Cc3ccccc3)cc2)[C@@H]2CN(C(=O)Nc3ccc(OC4CC4)cc3)CCCCN12)S(C)(=O)=O
6.59

// query pEC50 value for entry COc1ccc(NC(=O)N2CCCCN3[C@H](CN(C)S(C)(=O)=O)[C@H](c4ccc(C#Cc5ccccc5)cc4)[C@@H]3C2)cc1
6.34

// query pEC50 value for entry COc1ccc(NC(=O)N2CCCCN3[C@H](CO)[C@H](c4ccc(C#Cc5ccccc5)cc4)[C@@H]3C2)cc1
5.59

// query pEC50 value for entry COc1ccc(NC(=O)N2CCCCN3[C@H](CN(C)C)[C@H](c4ccc(C#Cc5ccccc5)cc4)[C@@H]3C2)cc1
6.17

====

Assay: in vivo
Set-up: species or system mouse
Details: female, CD1, mouse, in vivo, po, 10 mg/kg/day, mouse, 10 mg/kg/day p.o., Day 1
readout.name: MRT
Give the number first and the unit second.

// query MRT value for entry COc1ccc(NC(=O)N2CCCCN3[C@H](CN(C)C)[C@H](c4ccc(C#Cc5ccccc5)cc4)[C@@H]3C2)cc1
13.1 h

====

Assign pEC50 to each entry below.
Experiment: in vitro
Type: cell-based
Conditions: human, Caco-2; nuclei count, 44 h, top 20 μM
pEC50 is defined as minus the log10 of a concentration measured in mol/L.

// query pEC50 value for entry COc1ccc(NC(=O)N2CCCCN3[C@H](CO)[C@H](c4ccc(C#Cc5ccccc5)cc4)[C@@H]3C2)cc1 [BRD3444]
5.11

// query pEC50 value for entry COc1ccc(NC(=O)N2CCCCN3[C@H](CN(C)C)[C@H](c4ccc(C#Cc5ccccc5)cc4)[C@@H]3C2)cc1 [BRD7929]
5.15

====

System: firefly luciferase expressing T. gondii strains (GT1, RH, ME49, CTG, MAS, RUB, FOU, VAND)
Assay: Luciferase-based growth assay, FLuc parasites of diverse genotypes
Type: cell-based
Conditions: Toxoplasma gondii, GT1, strain GT1, type I, N. America; read-out: EC50
readout.name: EC50 (nM)
Numbers only; they are read as nM.

// query EC50 value for entry COc1ccc(NC(=O)N2CCCCN3[C@H](CN(C)C)[C@H](c4ccc(C#Cc5ccccc5)cc4)[C@@H]3C2)cc1
16.1

====

Target: recombinant wild-type TgPheRS (Toxoplasma gondii, UniProt A0A125YPN6)
Sequence (A0A125YPN6 1-525): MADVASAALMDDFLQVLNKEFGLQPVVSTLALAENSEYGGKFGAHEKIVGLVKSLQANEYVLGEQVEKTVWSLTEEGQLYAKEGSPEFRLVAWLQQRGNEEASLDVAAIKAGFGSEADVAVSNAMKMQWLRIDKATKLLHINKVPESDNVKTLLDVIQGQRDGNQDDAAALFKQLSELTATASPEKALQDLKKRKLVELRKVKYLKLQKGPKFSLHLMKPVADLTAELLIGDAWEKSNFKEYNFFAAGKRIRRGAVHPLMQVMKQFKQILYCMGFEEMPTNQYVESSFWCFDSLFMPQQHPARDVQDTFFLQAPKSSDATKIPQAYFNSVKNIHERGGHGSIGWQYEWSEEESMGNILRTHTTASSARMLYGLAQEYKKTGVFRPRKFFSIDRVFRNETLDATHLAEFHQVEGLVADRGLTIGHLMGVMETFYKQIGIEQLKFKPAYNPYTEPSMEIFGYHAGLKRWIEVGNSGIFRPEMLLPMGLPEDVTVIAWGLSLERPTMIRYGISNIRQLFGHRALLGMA
Sequence (S8EZ50 1-675 partner): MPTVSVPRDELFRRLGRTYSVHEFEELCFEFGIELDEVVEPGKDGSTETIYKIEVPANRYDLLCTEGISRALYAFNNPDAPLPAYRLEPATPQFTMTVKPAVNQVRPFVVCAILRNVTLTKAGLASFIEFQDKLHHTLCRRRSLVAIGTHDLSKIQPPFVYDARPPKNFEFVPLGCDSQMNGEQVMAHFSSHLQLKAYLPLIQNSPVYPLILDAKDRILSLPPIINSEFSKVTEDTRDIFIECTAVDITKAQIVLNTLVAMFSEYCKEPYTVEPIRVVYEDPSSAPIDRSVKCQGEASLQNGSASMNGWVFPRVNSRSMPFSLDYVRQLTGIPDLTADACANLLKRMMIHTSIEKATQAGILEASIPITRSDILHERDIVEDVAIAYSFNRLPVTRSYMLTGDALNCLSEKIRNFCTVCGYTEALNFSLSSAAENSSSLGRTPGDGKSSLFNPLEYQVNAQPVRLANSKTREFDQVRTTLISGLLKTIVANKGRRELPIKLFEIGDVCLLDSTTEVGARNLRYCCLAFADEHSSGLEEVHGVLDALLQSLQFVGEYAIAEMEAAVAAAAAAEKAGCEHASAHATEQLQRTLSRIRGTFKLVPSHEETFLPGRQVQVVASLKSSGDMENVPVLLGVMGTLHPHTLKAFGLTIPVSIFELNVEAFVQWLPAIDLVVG
Assay: Malachite green aminoacylation enzyme assay, wild-type TgPheRS
readout.name: IC50 (nM)
Numbers only; they are read as nM.

// query IC50 value for entry COc1ccc(NC(=O)N2CCCCN3[C@H](CN(C)C)[C@H](c4ccc(C#Cc5ccccc5)cc4)[C@@H]3C2)cc1
31

====

Tested on: firefly luciferase expressing T. gondii strains (GT1, RH, ME49, CTG, MAS, RUB, FOU, VAND)
Experiment: Luciferase-based growth assay, FLuc parasites of diverse genotypes
Format: cell-based
Conditions: Toxoplasma gondii, GT1, strain RUB, type V, S. America; read-out: EC50
readout.name: EC50 (nM)
Numbers only; they are read as nM.

// query EC50 value for entry COc1ccc(NC(=O)N2CCCCN3[C@H](CN(C)C)[C@H](c4ccc(C#Cc5ccccc5)cc4)[C@@H]3C2)cc1
26.9
